B1: PLAGL1 (parent)
chain: CKDFLCQFCAQRFGRKDHLTRHTK

Variants of: B1
assay-summary: protein stability index of a GFP-peptide fusion (GPS, HEK-293T) (PSI 1-6); higher = more stable;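 further: lentivirally expressed fusions sorted by FACS into six bins by GFP to DsRed ratio, PSI derived from sequencing read proportions per bin multiplied by bin number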
stated-conditions: c terminus: a fixed tail appended
measure: protein stability index
Output: the number by itself.

# annotated cases, reported protein stability index shown
G14N : 2.46
H22P : 2.3
T23K : 2.44
R15A : 1.82
T23P : 1.76

Per the records, this variant ( R12G ) has protein stability index equal to 2.54
